system: SK-OV-3 ovarian; assay: NCI-60 one-dose screen, 48 h (100 = growth as untreated, 0 = no growth, -100 = all killed); settings: 10 µM unless noted
The panel holds about 83,000 compounds, 20% with a hit somewhere; the sample as a whole holds those more often.
parameter: growth (%)
Express the result in % but write the number alone.

// known answers, use as guide
>>> measured_result("COc1ccc(-c2cc(-c3cn(-c4cccc(Cl)c4)nc3-c3ccc(OC)cc3)on2)cc1")
98
>>> measured_result("COC(=O)[C@]1(C)CCC[C@]2(C)[C@H]3C[C@@H]4[C@H]5[C@@H]6CC/C(=N\\OCC/C(N)=N/O)[C@H]5[C@@]3(CC[C@H]21)CC4(C(C)C)O6")
89.9
>>> measured_result("O=C1OCC2=C1C(c1ccccc1)c1cc3c(cc1N2CCO)OCCO3 (centres undefined)")
22.4
>>> measured_result("COc1ccc(/C=C2\\c3cc(OC)c(OC)c(OC)c3CC[C@@H]2O)cc1F")
22.4
>>> measured_result("COc1cc(O)c2c(=O)c3c(CC=C(C)C)cc(OC)c(O)c3oc2c1")
17
>>> measured_result("Oc1c(CN2CCC(N3CCOCC3)CC2)cc(Cc2cc(CN3CCC(N4CCOCC4)CC3)c(O)c3ncccc23)c2cccnc12")
0.924
>>> measured_result("Nc1cc(-c2ccc(Cl)cc2)nn1-c1nnc(/C=C/c2ccco2)c(=O)[nH]1")
60.7
>>> measured_result("Cc1ccc(NC(=O)c2cc3ccccc3cc2O)c(C)c1")
99.4

Query: Output measured growth for this item: COCCn1cc(-c2csc(-c3c[nH]c4ccccc34)n2)c2cccnc21
Response: 49.5

Taken from PubChem BioAssay (NCI).
